Tested on: Candida tropicalis
method-summary: Tested for minimum inhibitory concentration against Candida tropicalis 43 (C.t) at pH of 4.5.
Type: functional
Measured MIC of individual entries

Query string: Name the reported MIC value associated with the compound CC[C@@H](C)[C@H]1C(=O)NCC(=O)N(C)[C@@H](C(C)C)C(=O)N[C@@H](Cc2ccc(OC)cc2)C(=O)O[C@H](C)C(=O)N2CCCC[C@H]2C(=O)N(C)[C@@H](C(C)C)C(=O)N[C@@H](C(C)C)C(=O)N(C)[C@@H](CCO)C(=O)N(C)[C@@H]([C@@H](C)CC)C(=O)N1C
Result string: > 100 µg/mL

Query string: Any idea what its MIC is? The compound is CC[C@@H](C)[C@H]1C(=O)NCC(=O)N(C)[C@@H](C(C)C)C(=O)N[C@@H](Cc2ccc(OC)cc2)C(=O)O[C@@H](C)C(=O)N2CCCC[C@H]2C(=O)N(C)[C@@H](C(C)C)C(=O)N[C@@H](C(C)C)C(=O)N(C)[C@@H](CC(=O)O)C(=O)N(C)[C@@H]([C@@H](C)CC)C(=O)N1C
Result string: 6.25 µg/mL

Query string: What value of MIC has been recorded for this entry: CC[C@@H](C)[C@H]1C(=O)NCC(=O)N(C)[C@@H](C(C)C)C(=O)N[C@@H](CC(=O)O)C(=O)O[C@H](C)C(=O)N2CCCC[C@H]2C(=O)N(C)[C@@H](C(C)C)C(=O)N[C@@H](C(C)C)C(=O)N(C)[C@@H](CC(=O)O)C(=O)N(C)[C@@H]([C@@H](C)CC)C(=O)N1C
Result string: > 100 µg/mL

====

Test system: Candida tropicalis
method-summary: Tested for minimum inhibitory concentration against Candida tropicalis 43 (C.t) at pH of 4.5.
Assay type: functional
measured-quantity: MIC

Illustrative cases are given below, each with its answer.
CC[C@@H](C)[C@H]1C(=O)NCC(=O)N(C)[C@@H](C(C)C)C(=O)N[C@@H](Cc2ccc(OC)cc2)C(=O)O[C@H](C)C(=O)N2CCCC[C@H]2C(=O)N(C)[C@@H](C(C)C)C(=O)N[C@@H](C(C)C)C(=O)N(C)[C@@H](CC(=O)NCCN(C)C)C(=O)N(C)[C@@H]([C@@H](C)CC)C(=O)N1C : > 100 µg/mL
C=CCOC(=O)C[C@H]1C(=O)N(C)[C@@H]([C@@H](C)CC)C(=O)N(C)[C@@H]([C@H](C)CC)C(=O)NCC(=O)N(C)[C@@H](C(C)C)C(=O)N[C@@H](Cc2ccc(OCC=C)cc2)C(=O)O[C@H](C)C(=O)N2CCCC[C@H]2C(=O)N(C)[C@@H](C(C)C)C(=O)N[C@@H](C(C)C)C(=O)N1C : > 100 µg/mL

Now let's try a different one.
Query string: Value lookup for MIC; key = CC[C@@H](C)[C@H]1C(=O)NCC(=O)N(C)[C@@H](C(C)C)C(=O)N[C@@H](Cc2ccc(OCC(=O)O)cc2)C(=O)O[C@H](C)C(=O)N2CCCC[C@H]2C(=O)N(C)[C@@H](C(C)C)C(=O)N[C@@H](C(C)C)C(=O)N(C)[C@@H](CC(=O)O)C(=O)N(C)[C@@H]([C@@H](C)CC)C(=O)N1C
Result string: 25 µg/mL

====

Tested on: Candida albicans
method-summary: Tested for minimum inhibitory concentration against Candida albicans 124 (Candida albicans) at pH of 6.5.
Type: functional
In this section, each of the molecules is paired with its reported MIC.

Guide cases for MIC, answers given:
CC[C@@H](C)[C@H]1C(=O)NCC(=O)N(C)[C@@H](C(C)C)C(=O)N[C@@H](Cc2ccc(OC)cc2)C(=O)O[C@H](C)C(=O)N2CCCC[C@H]2C(=O)N(C)[C@@H](C(C)C)C(=O)N[C@@H](C(C)C)C(=O)N(C)[C@@H](CCO)C(=O)N(C)[C@@H]([C@@H](C)CC)C(=O)N1C : > 100 µg/mL
CC[C@@H](C)[C@H]1C(=O)NCC(=O)N(C)[C@@H](C(C)C)C(=O)N[C@@H](Cc2ccc(OCc3ccc(Br)cc3)cc2)C(=O)O[C@H](C)C(=O)N2CCCC[C@H]2C(=O)N(C)[C@@H](C(C)C)C(=O)N[C@@H](C(C)C)C(=O)N(C)[C@@H](CC(=O)O)C(=O)N(C)[C@@H]([C@@H](C)CC)C(=O)N1C : > 100 µg/mL

Query string: For the molecule shown here, C=CCOc1ccc(C[C@@H]2NC(=O)[C@H](C(C)C)N(C)C(=O)CNC(=O)[C@H]([C@H](C)CC)N(C)C(=O)[C@H]([C@@H](C)CC)N(C)C(=O)[C@H](CC(=O)O)N(C)C(=O)[C@H](C(C)C)NC(=O)[C@H](C(C)C)N(C)C(=O)[C@@H]3CCCCN3C(=O)[C@@H](C)OC2=O)cc1 , give the reported MIC.
Result string: 6.25 µg/mL

Query string: What measured MIC goes with CC[C@@H](C)[C@H]1C(=O)NCC(=O)N(C)[C@@H](C(C)C)C(=O)N[C@@H](Cc2ccc(OCc3ccccc3)cc2)C(=O)O[C@H](C)C(=O)N2CCCC[C@H]2C(=O)N(C)[C@@H](C(C)C)C(=O)N[C@@H](C(C)C)C(=O)N(C)[C@@H](CC(=O)O)C(=O)N(C)[C@@H]([C@@H](C)CC)C(=O)N1C ?
Result string: > 100 µg/mL

Query string: If you can, please state the reported MIC value of CC[C@@H](C)[C@H]1C(=O)NCC(=O)N(C)[C@@H](C(C)C)C(=O)N[C@@H](Cc2ccc(OC)cc2)C(=O)O[C@@H](C)C(=O)N2CCCC[C@H]2C(=O)N(C)[C@@H](C(C)C)C(=O)N[C@@H](C(C)C)C(=O)N(C)[C@@H](CC(=O)O)C(=O)N(C)[C@@H]([C@@H](C)CC)C(=O)N1C .
Result string: 12.5 µg/mL

Query string: Which MIC is reported for this molecule? CC[C@H](C)[C@H]1C(=O)NCC(=O)N(C)[C@@H](C(C)C)C(=O)N[C@@H](Cc2ccc(OC)cc2)C(=O)N[C@@H](C)C(=O)N[C@H](C)C(=O)N2CCCC[C@H]2C(=O)N(C)[C@@H](C(C)C)C(=O)N[C@@H](C(C)C)C(=O)N(C)[C@@H](CC(=O)O)C(=O)N(C)[C@@H]([C@@H](C)CC)C(=O)N1C
Result string: > 100 µg/mL

Query string: Which MIC is listed for CC[C@@H](C)[C@H]1C(=O)NCC(=O)N(C)[C@@H](C(C)C)C(=O)N[C@@H](CC(=O)O)C(=O)O[C@H](C)C(=O)N2CCCC[C@H]2C(=O)N(C)[C@@H](C(C)C)C(=O)N[C@@H](C(C)C)C(=O)N(C)[C@@H](CC(=O)O)C(=O)N(C)[C@@H]([C@@H](C)CC)C(=O)N1C ?
Result string: > 100 µg/mL

Query string: Quick one: MIC for CC[C@@H](C)[C@H]1C(=O)NCC(=O)N(C)[C@@H](C(C)C)C(=O)N[C@@H](Cc2ccc(OCC(=O)O)cc2)C(=O)O[C@H](C)C(=O)N2CCCC[C@H]2C(=O)N(C)[C@@H](C(C)C)C(=O)N[C@@H](C(C)C)C(=O)N(C)[C@@H](CC(=O)O)C(=O)N(C)[C@@H]([C@@H](C)CC)C(=O)N1C ?
Result string: 100 µg/mL

Query string: Request the reported MIC associated with CC[C@H](C)[C@H]1C(=O)NCC(=O)N(C)[C@@H](C(C)C)C(=O)N[C@@H](Cc2ccc(OC)cc2)C(=O)N[C@@H](C)C(=O)N[C@@H](C)C(=O)N2CCCC[C@H]2C(=O)N(C)[C@@H](C(C)C)C(=O)N[C@@H](C(C)C)C(=O)N(C)[C@@H](CC(=O)O)C(=O)N(C)[C@@H]([C@@H](C)CC)C(=O)N1C
Result string: > 100 µg/mL

Query string: Field request: MIC | item: CCCCCCCCOC(=O)C[C@H]1C(=O)N(C)[C@@H]([C@@H](C)CC)C(=O)N(C)[C@@H]([C@H](C)CC)C(=O)NCC(=O)N(C)[C@@H](C(C)C)C(=O)N[C@@H](Cc2ccc(OC)cc2)C(=O)O[C@H](C)C(=O)N2CCCC[C@H]2C(=O)N(C)[C@@H](C(C)C)C(=O)N[C@@H](C(C)C)C(=O)N1C
Result string: > 100 µg/mL

Query string: Param item = CC[C@@H](C)[C@H]1C(=O)NCC(=O)N(C)[C@@H](C(C)C)C(=O)N[C@@H](Cc2ccc(OC)cc2)C(=O)O[C@H](C)C(=O)N2CCCC[C@H]2C(=O)N(C)[C@@H](C(C)C)C(=O)N[C@@H](C(C)C)C(=O)N(C)[C@@H](CC(=O)OC(C)(C)C)C(=O)N(C)[C@@H]([C@@H](C)CC)C(=O)N1C ; retrieve measured MIC.
Result string: > 100 µg/mL

Query string: Entry under review: CC[C@@H](C)[C@H]1C(=O)NCC(=O)N(C)[C@@H](C(C)C)C(=O)N[C@@H](Cc2ccc(OC)cc2)C(=O)O[C@H](C)C(=O)N2CCCC[C@H]2C(=O)N(C)[C@@H](C(C)C)C(=O)N[C@@H](C(C)C)C(=O)N(C)[C@@H](CC(=O)NCCN(C)C)C(=O)N(C)[C@@H]([C@@H](C)CC)C(=O)N1C . Reported MIC?
Result string: > 100 µg/mL

Query string: Request the reported MIC associated with CC[C@@H](C)[C@H]1C(=O)NCC(=O)N(C)[C@@H](C(C)C)C(=O)N[C@@H](Cc2ccc(OC)cc2)C(=O)O[C@H](C)C(=O)N2CCCC[C@H]2C(=O)N(C)[C@@H](C(C)C)C(=O)N[C@@H](C(C)C)C(=O)N(C)[C@@H](CC(=O)N(CC)CC)C(=O)N(C)[C@@H]([C@@H](C)CC)C(=O)N1C
Result string: > 100 µg/mL
